- Test system: Acinetobacter calcoaceticus
- EXPERIMENTAL_PROTOCOL: Antibacterial activity against Acinetobacter calcoaceticus ATCC 19606 by agar dilution method
- Type: functional
# MIC values compiled below

As a guide, the following entries are already answered.
CCC(CC)NC(=N)c1ccc2cc(-c3ccc(Oc4ccc(-c5cc6ccc(C(=N)NC(CC)CC)cc6[nH]5)cc4)cc3)[nH]c2c1 ... 16 µg/mL
CC1CCN(C(=N)c2ccc3cc(-c4ccc(Oc5ccc(-c6cc7ccc(C(=N)N8CCC(C)CC8)cc7[nH]6)cc5)cc4)[nH]c3c2)CC1 ... > 128 µg/mL
c1cc(-c2cc3ccc(C4=NCCN4)cc3[nH]2)ccc1Oc1ccc(-c2cc3ccc(C4=NCCN4)cc3[nH]2)cc1 ... > 128 µg/mL

Proceed to the following item.
Value lookup for MIC; key = N=C(c1ccc2cc(-c3ccc(Oc4ccc(-c5cc6ccc(C(=N)N7CCCCC7)cc6[nH]5)cc4)cc3)[nH]c2c1)N1CCCCC1
> 128 µg/mL
